Where do the numbers come from? From ChEMBL document CHEMBL4138149.

tested on: MCF7; assay: Cytotoxicity against human MCF7 cells after 72 hrs by MTT assay; format: functional, cell-based; settings: MCF7, 72 h
Can you tell me IC50 for the items I'm about to list?

Dear colleague, could you send me IC50 for each of the items below? Thanks.
1. O=C(Nc1ccc(-c2ccnc(N3CCOCC3)n2)cc1)Nc1ccc(Cl)c(-c2ccncc2)c1
2. O=C(Nc1ccc(-c2nc(N3CCOCC3)nc(N3CCOCC3)n2)cc1)Nc1ccc(Cl)c(-c2cccnc2)c1
3. O=C(Nc1ccc(-c2cc(N3CCOCC3)nc(N3CCOCC3)n2)cc1)Nc1ccc(Cl)c(-c2ccncc2)c1
4. Nc1cc(C(F)(F)F)c(-c2cc(N3CCOCC3)nc(N3CCOCC3)n2)cn1

Result:
["19.2 µM", "5.75 µM", "8.2 µM", "11.1 µM"]

* * *

test system: T47D; test: Cytotoxicity against human T47D cells after 72 hrs by MTT assay; assay type: functional, cell-based
Property name: pIC50
Give bare numbers, as −log10 of the molar value.

Please give pIC50, item by item, for the list that follows.
1. O=C(Nc1ccc(-c2cc(N3CCOCC3)nc(N3CCOCC3)n2)cc1)Nc1ccc(Cl)c(-c2ccncc2)c1
2. O=C(Nc1ccc(-c2ccnc(N3CCOCC3)n2)cc1)Nc1ccc(Cl)c(-c2ccccn2)c1

Result:
5.13
4.64

Please state, for each entry, its recorded pIC50.
1. O=C(Nc1ccc(-c2ccnc(N3CCOCC3)n2)cc1)Nc1ccc(Cl)c(-c2ccccc2)c1
2. O=C(Nc1ccc(-c2nc(N3CCOCC3)nc(N3CCOCC3)n2)cc1)Nc1ccc(Cl)c(-c2ccccn2)c1
3. O=C(Nc1ccc(-c2nc(N3CCOCC3)nc(N3CCOCC3)n2)cc1)Nc1ccc(Cl)c(-c2cccs2)c1
4. O=C(Nc1ccc(-c2nc(N3CCOCC3)nc(N3CCOCC3)n2)cc1)Nc1ccc(Cl)c(-c2ccccc2)c1
5. O=C(Nc1ccc(-c2ccnc(N3CCOCC3)n2)cc1)Nc1ccc(Cl)c(-c2cccnc2)c1
6. CS(=O)(=O)c1ccc(C(=O)Nc2ccc(-c3ccnc(N4CCOCC4)n3)cc2)c(Cl)c1

Result:
4.35
4.85
4.36
4.81
5.39
4.60

* * *

List of pIC50 tested on Serine/threonine-protein kinase mTOR (Homo sapiens).
Answers are plain numbers, as −log10 of the molar value.

Look over these answered cases.
O=C(Nc1ccc(-c2nc(N3CCOCC3)nc(N3CCOCC3)n2)cc1)Nc1ccc(Cl)c(-c2ccncc2)c1 : 6.74
O=C(Nc1ccc(-c2nc(N3CCOCC3)nc(N3CCOCC3)n2)cc1)Nc1ccc(Cl)c(-c2ccccn2)c1 : 7.05

Now for a further compound.
Q: Value lookup for pIC50; key = `O=C(Nc1ccc(-c2nc(N3CCOCC3)nc(N3CCOCC3)n2)cc1)Nc1ccc(Cl)c(-c2ccccc2)c1`
Result: 5.46

* * *

system: T47D; assay: Cytotoxicity against human T47D cells after 72 hrs by MTT assay; assay type: functional, cell-based
Property name: pIC50
Give bare numbers, as −log10 of the molar value.

Reference set (2 entries):
O=C(Nc1ccc(-c2cc(N3CCOCC3)nc(N3CCOCC3)n2)cc1)Nc1ccc(Cl)c(-c2ccccn2)c1 : 4.45
O=C(Nc1ccc(-c2cc(N3CCOCC3)nc(N3CCOCC3)n2)cc1)Nc1ccc(Cl)c(-c2cccs2)c1 : 4.59

Now consider the entry below.
Q: # query: pIC50 of entry `CS(=O)(=O)c1ccc(C(=O)Nc2ccc(-c3nc(N4CCOCC4)nc(N4CCOCC4)n3)cc2)c(Cl)c1`
Result: 4.76
